Molecular target: AuroraB (Homo sapiens)
Construct: 20 μL of AuroraB FL H is for a final volume of 41 μL; His
Sequence (Q96GD4 whole entry): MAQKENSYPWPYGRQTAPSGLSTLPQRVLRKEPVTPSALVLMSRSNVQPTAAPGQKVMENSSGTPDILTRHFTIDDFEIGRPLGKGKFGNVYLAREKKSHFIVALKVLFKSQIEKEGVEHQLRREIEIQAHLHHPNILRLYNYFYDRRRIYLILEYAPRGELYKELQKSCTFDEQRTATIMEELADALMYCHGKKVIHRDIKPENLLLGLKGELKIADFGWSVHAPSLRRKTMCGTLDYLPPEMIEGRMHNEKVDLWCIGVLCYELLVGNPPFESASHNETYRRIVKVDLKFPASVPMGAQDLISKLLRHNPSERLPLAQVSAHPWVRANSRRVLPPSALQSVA
Assay: AuroraB Homogeneous Time Resolved Fluorescent (HTRF) kinase assay
Type: biochemical
Conditions: average; read-out: AurB_IC50_IP (uM Avg)
Description: AuroraB-Homogeneous Time Resolved Fluorescent (HTRF) Kinase Assay: The AuroraB HTRF assay begins with AuroraB in the presence of ATP phosphorylating the biotinylated peptide Histone H3. […] The assay is quenched and stopped with 160 μL of detection reagent. […] Added to this buffer prior to reading is Steptavidin allophycocyanin (SA-APC) at a final conc in the assay of 0.001 mg/mL, and europilated anti-phosphoHistoneH3 Ab (Eu-anti-HisH3) at a final conc of 0.064 nM. […]
Values of IC50 strictly less than 0.03 µM map to Condition met, and values of at least 0.03 µM map to Condition not met.

> print(dat)
                                smiles.text         class.name
1  COc1cc2nccc(Sc3ccc(Nc4nnc(-c5ccccc5)c5ccccc45)cc3)c2cc1OC  Condition not met
2  COc1cnc2c(Oc3ccc(Nc4nnc(-c5ccc(C)nc5)c5ccccc45)cc3)ccnc2c1      Condition met
3  COc1cnc2c(Oc3ccc(Cc4nnc(-c5ccc(C)cc5)c5ccccc45)cc3)ccnc2c1      Condition met
4  Cc1csc(-c2nnc(Nc3ccc(Sc4ccnc5cc(C#N)sc45)cc3)c3ccccc23)c1  Condition not met
5  COc1cc2nccc(Sc3ccc(Nc4nnc(-c5ccc(Cl)cc5)c5ccccc45)cc3)c2[nH]c1=O  Condition not met
6  COc1cnc2c(Oc3ccc(Nc4nnc(-c5cccc(C)n5)c5ccccc45)cc3)ccnc2c1      Condition met
7  COc1ccc2c(Oc3ccc(Nc4nnc(-c5cc(C)ccn5)c5ccccc45)cc3)ccnc2c1      Condition met
8  COc1cnc2c(Sc3ccc(Nc4nnc(N5CCn6ncnc6C5)c5ccccc45)cc3)ccnc2c1  Condition not met
